Reference source: paper PMC5540273

%Inh for assorted compounds
# System: SIK;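 note: KINOMEscan kinase panel screen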
# experimental conditions: concentration: 1 μM, replicates: in singlicate; n = 1
Quick note: give the figure in %, leave out the unit.

> print(dat)
                                   compound  value.units  val
1  Nc1cccc(-c2ccc3c(N)n[nH]c3c2)c1 [GSK2193613]            %    0
2  Cc1ccc(-c2ccc3occ(-c4ccc(S(C)=O)cc4)c3c2)nn1 (centres unmarked)            %    0
3  Cc1ccc(O)cc1Nc1ccnc2ccc(C(C)(C)C)cc12 [GW856805]            %   42
4  Cl.O=C(Nc1ccc(Oc2ccc3[nH]c(NC(=O)c4ccco4)nc3c2)cc1)Nc1cc(C(F)(F)F)ccc1F [GW683134]            %    0
5  O=C(Nc1n[nH]c2nc(-c3cccc(O)c3)ccc12)C1CC1 [SB-711805]            %    0

// fetch %Inh given entry Fc1cc(Cl)ccc1Nc1ccnc2cc(-c3ccc(CN4CCOCC4)o3)ccc12 [GW560109]
97.4

// fetch %Inh given entry O=C(O)C(F)(F)F.O=c1[nH]ccc2nc(N[C@@H]3CCNC3)nc(Nc3cc(Cl)cc(Cl)c3)c12 [GSK2188764]
1

// fetch %Inh given entry CC(C)c1nc(-c2ccc(F)c(NS(=O)(=O)c3c(F)cccc3F)c2)c(-c2ccnc(Nc3ccc(N4CCOCC4)nc3)n2)s1 [GSK1804250]
99.5
